Cited source for all entries: PubChem BioAssay (NCI)

System: TK-10 renal
Assay: NCI-60 one-dose screen, 48 h (100 = growth as untreated, 0 = no growth, -100 = all killed)
Conditions: 10 µM unless noted
The panel holds about 83,000 compounds, 20% with a hit somewhere; the sample as a whole holds those more often.
# reported growth; entries follow

Compound	Units text	growth
COc1ccc(NC(=O)n2nc(/C=C\c3ccc(O)c(OC)c3)cc2/C=C\c2ccc(O)c(OC)c2)cc1	%	63.8
O=C(CCN1C(=O)/C(=C/c2ccc(O)cc2)SC1=S)Nc1ccc(Cl)cc1	%	108
C#C[C@]1(O)CC[C@H]2[C@@H]3CC=C4c5sc(Nc6cc(F)ccc6F)nc5CC[C@]4(C)[C@H]3CC[C@@]21C	%	18.5
COc1cc(/C=N/NC(=O)c2ccc(C)nc2)cc(OC)c1OC	%	81.3
Oc1c(I)cc(I)cc1CNCCCN(Cc1ccccn1)Cc1ccccn1	%	-78.5
COc1ccc(CN2c3ccccc3CCc3ccccc32)cc1F	%	62.7
CN(C)CCS(=O)(=O)Nc1cc(-c2ccc3ncc(C#N)c(Nc4ccc(F)c(Cl)c4)c3c2)cnc1Cl	%	-35.5
COc1ccc(C2NC(=O)C(C#N)c3c2sc2c(F)cccc32)c(OC)c1 (stereo not given)	%	90.1
O=c1c2cc(C(F)(F)F)ccc2sc2c(NCCCNCCO)nc3ccccc3c12	%	-0.0148
Cc1cccc2c(=O)c3c(sc12)c(NCc1ccccc1)nc1ccccc13	%	105

====

Test system: HCC-2998 colon
Experiment: NCI-60 one-dose screen, 48 h
Conditions: 10 µM unless noted
The panel holds about 83,000 compounds, 20% with a hit somewhere; the sample as a whole holds those more often. Activity calls are given as the source filed them. The calls were made as follows: active = growth percent below 10; inactive = the rest.
Possible outcomes: active, inactive

Compound	Category label
COc1ccc(N)c(N)c1	inactive
COc1cccc(/C=C2\C=C(c3ccccc3)N(Cc3ccccc3)C2=O)c1	inactive
Brc1c[n+](Cc2ccc3ccccc3c2)cn1Cc1ccc2ccccc2c1	active
COc1ccc(CNC(=O)[C@H](O)[C@@H](N)Cc2ccccc2)cc1	inactive
COc1ccc(/C=C(\C#N)n2nnc3c(F)cccc32)cc1	active
CCCCn1c(=O)c(-c2cc(-c3ccc(Cl)cc3)nc(-c3ccc(Cl)cc3)c2)cc2cc(C)ccc21	inactive
COc1ccc(C2C(C#N)=C(N)Oc3c2sc2c(C)cccc32)cc1 (stereo not drawn)	inactive
CCOC(=O)Cn1c(=O)c2c(c3ccccc3n2C)n2nnc(-c3ccccc3)c12	inactive

====

System: TK-10 renal
Test: NCI-60 one-dose screen, 48 h (100 = growth as untreated, 0 = no growth, -100 = all killed)
Conditions: 10 µM unless noted
This is part of a sample that, as a whole, favours compounds with a hit. Of some 83,000 tested, about 20% had one in any assay.

Molecule	growth, %
CC1Cc2ccccc2N1NC(=O)c1ccc(Cl)c(S(N)(=O)=O)c1 (stereo not drawn)	101
Cc1ccc(S(=O)(=O)Oc2ccc(NC(=O)c3ccc(Cl)cc3)cc2)cc1	92.5
COc1ccc2nc(NC(=O)c3cccnc3Nc3ccc(S(N)(=O)=O)cc3)sc2c1	99
COc1ccc(-c2csc(NC(=O)N3CCN(c4cc5c(cc4F)c(=O)c(C(=O)O)cn5C4CC4)CC3)n2)cc1	25.5
CCCC1CCC(O)(C(C)(O)C(=O)NC2C(=O)N3NCCCC3C(=O)N(O)C(C)C(=O)N3NCCCC3C(=O)N3NCC(O)CC3C(=O)NC(C)C(=O)OC2C(C)C)OC1CC (stereo not drawn)	-85.3
NCCOc1ncccc1/C=C1\c2ccccc2-c2ccc(C(F)F)cc21	86.6
CC(=O)N1CCN(c2ccc(OCC3CO[C@](Cn4ccnc4)(c4ccc(Cl)cc4Cl)O3)cc2)CC1 (stereo partly drawn)	101
COc1ccc(OC)c(/C=C/C(=O)N/N=C/c2ccc(Cl)cc2)c1	51
NCCNc1nc2ccccc2c2c(=O)c3cc(F)ccc3sc12	101
c1ccc(Cc2nn3cc(-c4ccccc4)nc3s2)cc1	89.5
O=[N+]([O-])c1ccc(Oc2nc(Nc3ccc(O[C@H]4CO[C@H]5[C@@H]4OC[C@@H]5O)c(Cl)c3)ncc2F)c(Cl)c1	44.5
CC1=C(SCCC(=O)OC(C[Se]C2=C(C)C(=O)c3ccccc3C2=O)C(=O)NC(C)(C)C)C(=O)c2ccccc2C1=O (stereo not drawn)	-94.3
COc1cccc(-c2nc(-c3ccc(NC(=O)C(C)C)cc3)[nH]c2-c2ccnc(Br)c2)c1	54
NCCOc1ncccc1/C=C1\C2C=CC=CC2C2C=CC(F)=CC12 (stereo not drawn)	41.7
CN(C)CC#Cc1ccc2ncc(C#N)c(Nc3ccc(F)c(Cl)c3)c2c1	27.1
CN1CCN(CC(=O)N2c3cccc4cccc(c34)N(C(=O)CN3CCN(C)CC3)C2c2cn(-c3ccccc3)nc2-c2cccc([N+](=O)[O-])c2)CC1	-19.4
CCC(C)(c1cc(C(C)(C)C)c(O)c(C(C)(C)C)c1)c1cc(C(C)(C)C)c(O)c(C(C)(C)C)c1	97.3
[O-][n+]1c2ccccc2[n+]([O-])c2c3ccccc3[nH]c21	41

====

System: SR leukemia
Assay: NCI-60 one-dose screen, 48 h (100 = growth as untreated, 0 = no growth, -100 = all killed)
Conditions: 10 µM unless noted
Compounds without any hit were thinned out: in the full panel of roughly 83,000, 20% have a hit.
# reported growth; entries follow
Observed property: growth (%)

Molecule	Measured on	Units text	Test result
O=C(CCN1C(=O)/C(=C/c2ccc(O)cc2)SC1=S)Nc1ccccc1	SR leukemia	%	119
CCCCCCCCCCCCCCCCCC1OCC(COC(=O)O[C@]2(CC)C(=O)OCc3c2cc2n(c3=O)Cc3cc4ccccc4nc3-2)O1 (stereo not given in full)	SR leukemia	%	8.38
COc1ccc(-c2nc3sc(-c4ccc(Cl)cc4)cn3n2)cc1	SR leukemia	%	51.1
c1ccc(Cc2nn3cc(-c4ccccc4)nc3s2)cc1	SR leukemia	%	82.1
NCCCNc1nc2ccccc2c2c(=O)c3cc(C(F)(F)F)ccc3sc12	SR leukemia	%	-14.9
COc1ccc2sc3c(NCCO)nc4ccccc4c3c(=O)c2c1	SR leukemia	%	83.9
COc1cc(/C=C/c2ccccc2)cc(OC)c1	SR leukemia	%	86.7
COc1ccc(C2NC(=O)C(C#N)c3c2sc2c(F)cccc32)c(OC)c1 (stereo not given)	SR leukemia	%	13.9
CCc1ccc(Oc2c(-c3ccc(OCc4ccc(Cl)cc4)cc3O)n[nH]c2C(F)(F)F)cc1	SR leukemia	%	12.7
Cc1[nH]c(C(=O)Nc2ccc(C(=O)N3CCNCC3)cc2OC(C)C)c(Cl)c1Cl	SR leukemia	%	-34.3
CCS(=O)(=O)c1ncnc2nc[nH]c12	SR leukemia	%	97.8
O=C(O)CCC/C=C\C[C@H]1C=CC(=O)/C1=C/C[C@@H](O)CCc1cccc(C(F)(F)F)c1	SR leukemia	%	-7.7
CCCCn1c(-c2ccc(-c3nc(-c4ccc(Cl)cc4)no3)cc2)nc(-c2ccccc2)c1-c1ccccc1	SR leukemia	%	6.15
Cc1cccc(NCc2cn(-c3ccc(C(=O)O)cc3)nc2-c2ccc(C(=O)O)cc2)n1	SR leukemia	%	111
COC1=C(C)C(=O)c2c(c(CCCl)c3n2CCC3O)C1=O (stereo not given)	SR leukemia	%	7.38
COc1ccc2sc3c(NCCCNCCO)nc4ccccc4c3c(=O)c2c1	SR leukemia	%	-46.9
CN1CCN(Cc2ccc(NC(=O)c3ccc(C(C)(C)C)c(C#Cc4cnc5cccnn45)c3)cc2C(F)(F)F)CC1	SR leukemia	%	-49.7
C=C1C(=O)O[C@H]2[C@H]1CC/C(COC(=O)NCCOCCOCC(=O)Nc1ccc(OC)c(C(N)=O)c1O)=C\CC[C@@]1(C)O[C@@H]21	SR leukemia	%	7.91
C=CCc1cc(C)ccc1NC(C(=O)NCC(=O)OC)c1ccccc1 (stereo not given)	SR leukemia	%	95
CSc1ccc2c(c1)c(CCN)c(C)n2Cc1ccc(Cl)c(Cl)c1	SR leukemia	%	-61.6

====

Test system: MCF7 breast
Assay: NCI-60 one-dose screen, 48 h (100 = growth as untreated, 0 = no growth, -100 = all killed)
Conditions: 10 µM unless noted
The panel holds about 83,000 compounds, 20% with a hit somewhere; the sample as a whole holds those more often. Active and inactive are the calls of the source. Rule for the calls: active = growth percent below 10; inactive = the rest.

Sample smiles	Measured on	growth
COc1ccc(C(=O)n2nc(-c3ccccc3)nc2N)cc1OC	MCF7 breast	44.3% (inactive)
CN1C(=O)CNC(=O)[C@H](NC(=O)c2nc3ccccc3cc2O)CSSC[C@H]1C(=O)NCCCc1nc2ccccc2cc1O	MCF7 breast	55.1% (inactive)
C=C(C)[C@@H]1CC[C@]2(N=C=O)CC[C@]3(C)[C@H](CC[C@@H]4[C@@]5(C)Cc6c([nH]c7ccccc67)C(C)(C)[C@@H]5CC[C@]43C)[C@@H]12	MCF7 breast	39.5% (inactive)
COc1ccc2c(c1)c(-c1ccc(-c3cn(C)c4ccc(OC)cc34)o1)cn2C	MCF7 breast	65.4% (inactive)
COc1cc(/C=C2\C(=O)Nc3ccc(Br)cc32)cc(OC)c1OC	MCF7 breast	24.2% (inactive)
